# Test system: GB4
# PROTOCOL: qHTS profiling for inhibitors of Plasmodium falciparum proliferation (AID 504749); also: nearly all actives have a fitted effect of over 60% in size; also: potency is read from the fitted curve at half-maximal effect
# EXPERIMENTAL_PARAMETERS: P. falciparum in erythrocytes, SYBR Green DNA, 72 h; series mostly up to 28.7 µM
Results filed as inconclusive are left out. The source made the active and inactive calls. Calls follow the shape of the dose curve; as a rule, active = well fitted inhibition curve with a large enough effect; inconclusive = small, poorly fitted or top-dose-only effect; inactive = flat fitted curve, though single readings scatter.
MEASURED_ATTRIBUTE: Potency

MOLECULE | Potency
CCOC(=O)n1ccn(C)c1=S | inactive
O=S1(=O)c2cccc3cccc(c23)N1CCCN1CCN(c2ccc(F)cc2)CC1 | inactive
O=C(COc1ccc(Cl)cc1)N1CCN(Cc2ccc3c(c2)OCO3)CC1 | inactive
COc1ccc(CN2CCN(C(c3ccc(F)cc3)c3ccc(F)cc3)CC2)c(OC)c1OC | 9.53 µM (active)

What value of measured Potency is listed for CCOC(=O)OC(C)OC1=C(C(=O)Nc2ccccn2)N(C)S(=O)(=O)c2ccccc21 (stereo not given) ?
inactive

###

# Tested on: DIV14
# PROTOCOL: qHTS profiling for inhibitors of Plasmodium falciparum proliferation (AID 504749); also: nearly all actives have a fitted effect of over 60% in size; also: potency is read from the fitted curve at half-maximal effect
# EXPERIMENTAL_PARAMETERS: P. falciparum in erythrocytes, SYBR Green DNA, 72 h; series mostly up to 28.7 µM
Results filed as inconclusive are left out. Active and inactive are the calls of the source. The call rests on the fitted dose curve; in most records, active means well fitted inhibition curve with a large enough effect; inconclusive means small, poorly fitted or top-dose-only effect; inactive means flat fitted curve, though single readings scatter.
MEASURED_ATTRIBUTE: Potency

Example cases with answers are listed next.
STRUCTURE_SMILES | Potency
C[C@]12CC[C@@H]3c4ccc(O)cc4CC[C@H]3[C@@H]1CC[C@@H]2O | inactive
O=c1ccc2ccccc2o1 | inactive
CN(C)C(=S)SC(=S)N(C)C | 13.5 µM (active)
CC(C)(CO)[C@@H](O)C(=O)NCCCO | inactive
COc1cc(C(=S)N2CCOCC2)cc(OC)c1OC | inactive

What value of measured Potency is listed for COc1c(C)c2c(c(O)c1C/C=C(\C)CCC(=O)O)C(=O)OC2 ?
6.42 µM (active)

What value of measured Potency is listed for CC(=O)Nc1c(I)cc(I)c(C(=O)O)c1I ?
inactive

###

# PROTOCOL: qHTS assay for small molecule agonists of the antioxidant response element (ARE) signaling pathway measured by Nrf2-dependant transcriptional activity (AID 720636);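 as to activation: HepG2 cells with an ARE-driven luciferase reporter; % of control where 0% means no effect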
# EXPERIMENTAL_PARAMETERS: ARE-luc HepG2, Nrf2 luciferase reporter, 16 h; series mostly up to 92.4 µM
Inconclusive results are not listed. Calls of active or inactive are those of the source. Calls follow the shape of the dose curve; as a rule, active = well fitted activation curve with a large enough effect in the repeat runs; inconclusive = weak or mixed curves; inactive = flat fitted curve, though single readings scatter.
Valid outcomes are listed here; reply with one: YES = active, NO = inactive

Please review the following examples before continuing.
STRUCTURE_SMILES | LABEL_VALUE
CN(C)C(=S)SC(=S)N(C)C | NO
O=C1OC(c2ccc(O)cc2)(c2ccc(O)cc2)c2ccccc21 | NO
CCCCCCc1ccc(O)cc1O | NO
C[C@]12CC[C@@H]3c4ccc(O)cc4CC[C@H]3[C@@H]1CC[C@@H]2O | NO
C[C@H]1C[C@H]2[C@@H]3CCC4=CC(=O)C=C[C@]4(C)[C@@]3(Cl)[C@@H](O)C[C@]2(C)[C@@]1(O)C(=O)CO | NO
Oc1c(I)cc(Cl)c2cccnc12 | YES

Hi, do you know how Oc1c(Cl)cc(Cl)cc1Sc1cc(Cl)cc(Cl)c1O came out in this test?
NO

Hi, do you know how CC(C)(Oc1ccc(Cl)cc1)C(=O)O came out in this test?
NO

Hi, do you know how O=C(O)CCCCC(=O)O came out in this test?
NO

Hi, do you know how CN(C)/N=N/c1nc[nH]c1C(N)=O came out in this test?
NO

Hi, do you know how COC1=CC(=O)C[C@@H](C)[C@]12Oc1c(Cl)c(OC)cc(OC)c1C2=O came out in this test?
NO

Hi, do you know how C=CCc1ccc(O)c(OC)c1 came out in this test?
NO

Hi, do you know how Nc1ccc(C(=O)O)cc1 came out in this test?
NO

###

# Test system: Dd2
# PROTOCOL: qHTS profiling for inhibitors of Plasmodium falciparum proliferation (AID 504749); also: nearly all actives have a fitted effect of over 60% in size
# EXPERIMENTAL_PARAMETERS: P. falciparum in erythrocytes, SYBR Green DNA, 72 h; series mostly up to 28.7 µM
Results filed as inconclusive are left out. The source made the active and inactive calls. Calls come from the whole dose curve; as a rule, active = well fitted inhibition curve with a large enough effect; inconclusive = small, poorly fitted or top-dose-only effect; inactive = flat fitted curve, though single readings scatter.
Valid outcomes are listed here; reply with one: yes (1) (active), no (0) (inactive)

Please review the following examples before continuing.
MOLECULE | LABEL_VALUE
O=C(CCCN1CCC(O)(c2ccc(Br)cc2)CC1)c1ccc(F)cc1 | yes (1)
CCCCCCCCCCCCCCCCCC(=O)OCC(O)CO (centres undefined) | no (0)
CCCCC(CC)CN=C(N)NC(N)=NCCCCCCN=C(N)NC(N)=NCC(CC)CCCC (centres undefined) | yes (1)
NC(=NCCCCCCN=C(N)/N=C(\N)Nc1ccc(Cl)cc1)/N=C(\N)Nc1ccc(Cl)cc1 | yes (1)
Cc1cc(O)c(C(C)C)cc1Cl | no (0)
CC(C)(Oc1ccc(Cl)cc1)C(=O)O | no (0)
COc1ccc(C2C(=O)c3ccccc3C2=O)cc1 | no (0)
CCOC(=O)COc1ccc2c(C)c(CCN(CC)CC)c(=O)oc2c1Cl | no (0)

In the following, a different molecule is considered.
Hi, do you know how C[C@H](O)C(=O)Nc1c(I)c(C(=O)NC(CO)CO)c(I)c(C(=O)NC(CO)CO)c1I came out in this test?
no (0)

###

# PROTOCOL: Cell Viability - Mesenchymal (AID 546);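 also: cells exposed to compound for 40 hours before reading; 0% = DMSO only and -100% = 100 µM tamoxifen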
# EXPERIMENTAL_PARAMETERS: mesenchymal cells viability, qHTS; at 91.7 µM (top of the series)
Inconclusive results are not listed.
MEASURED_ATTRIBUTE: activity change, negative = cytotoxicity (%)
The figure you give is taken to be in %; do not add the unit.

Example cases with answers are listed next.
COMPOUND | UNIT_OF_MEASUREMENT | activity change, negative = cytotoxicity
O=C(O)CCCCC(=O)O | % | 3.41
Oc1c(Cl)cc(Cl)cc1Sc1cc(Cl)cc(Cl)c1O | % | -28.4
CN(C)/N=N/c1nc[nH]c1C(N)=O | % | -2.47
CC(O)C(=O)O (stereo unspecified) | % | -3.83
Nc1ccc(C(=O)O)cc1 | % | -3.72

What value of measured activity change, negative = cytotoxicity is listed for C[C@]12CC[C@@H]3c4ccc(O)cc4CC[C@H]3[C@@H]1CC[C@@H]2O ?
-23.1

What value of measured activity change, negative = cytotoxicity is listed for COC1=CC(=O)C[C@@H](C)[C@]12Oc1c(Cl)c(OC)cc(OC)c1C2=O ?
-20.5

What value of measured activity change, negative = cytotoxicity is listed for O=C1OC(c2ccc(O)cc2)(c2ccc(O)cc2)c2ccccc21 ?
-12.7

What value of measured activity change, negative = cytotoxicity is listed for Oc1ccc(O)cc1 ?
-96.1

What value of measured activity change, negative = cytotoxicity is listed for C=C(CC)C(=O)c1ccc(OCC(=O)O)c(Cl)c1Cl ?
-21.9

What value of measured activity change, negative = cytotoxicity is listed for CCCCCCc1ccc(O)cc1O ?
-9.3

###

# TARGET_DESC: 3',5'-cyclic-AMP phosphodiesterase 4B (Homo sapiens)
# PROTOCOL: qHTS Assay for Inhibitors of PDE-IV (AID 607); also: % of control where 0% means no effect
# EXPERIMENTAL_PARAMETERS: HEK293 ACTOne CNG channel cells, membrane potential fluorescence; series mostly up to 22.9 µM
Records with an inconclusive call do not appear. Calls of active or inactive are those of the source. Calls follow the shape of the dose curve; as a rule, active = well fitted activation curve with a large enough effect in the main read-out, with a control signal flat (not every such curve was filed as active); inconclusive = small, poorly fitted or top-dose-only effect, or effect the other way, or a change in a side signal; inactive = flat fitted curve, though single readings scatter.
MEASURED_ATTRIBUTE: outcome

Example cases with answers are listed next.
STRUCTURE_SMILES | MEASURED_ATTRIBUTE | OBSERVED
O=C(O)c1cc2cc(Cc3cccnc3)ccc2o1 | outcome | inactive
CC(C)(Oc1ccc(Cl)cc1)C(=O)O | outcome | inactive
Cc1ccnc(NS(=O)(=O)c2ccc(N)cc2)n1 | outcome | inactive
COc1cc(NS(C)(=O)=O)ccc1Nc1c2ccccc2nc2ccccc12 | outcome | inactive

What value of measured outcome is listed for CCCn1c(=O)[nH]c(=O)c2[nH]cnc21 ?
inactive

What value of measured outcome is listed for O=C1c2ccccc2C(=O)C1c1ccccc1 ?
inactive

What value of measured outcome is listed for CN1CCC(=C2c3ccccc3Sc3ccccc32)CC1 ?
inactive

What value of measured outcome is listed for C[C@@H](CN(C)C)CN1c2ccccc2Sc2ccccc21 ?
inactive

What value of measured outcome is listed for CC(C)COC(=O)OCN1C(=O)CN(CCN2CC(=O)N(COC(=O)OCC(C)C)C(=O)C2)CC1=O ?
inactive

What value of measured outcome is listed for CN1CCN(CCCN2c3ccccc3Sc3ccc(S(=O)(=O)N(C)C)cc32)CC1 ?
inactive

###

# PROTOCOL: qHTS drug screen for cell cycle checkpoint inhibitors in PARPi-resistant BRCA-mutant ovarian cancer cell lines. (AID 1963452)
# EXPERIMENTAL_PARAMETERS: PEO1/OlaR viability, CellTiter-Glo luminescence, 96 h; measured here: PEO1 parental Z-AUC; stronger effect = lower value
MEASURED_ATTRIBUTE: Z-AUC

Example cases with answers are listed next.
STRUCTURE_SMILES | Z-AUC
C[C@]12C=CC(=O)C=C1CC[C@@H]1[C@@H]2[C@@H](O)C[C@@]2(C)[C@H]1CC[C@]2(O)C(=O)CO | 0.0884
CC(=O)OCC(=O)[C@@]12N=C(C)O[C@@H]1C[C@H]1[C@@H]3CCC4=CC(=O)C=C[C@]4(C)[C@H]3[C@@H](O)C[C@@]12C | 1.08
COc1cc2c(cc1O)CC[C@@H]1[C@@H]2CC[C@]2(C)[C@@H](O)CC[C@@H]12 | -0.545
C[C@]12CC[C@@H]3c4ccc(O)cc4CC[C@H]3[C@@H]1C[C@@H](O)[C@@H]2O | 0.00281
O=c1[nH]c(=O)n([C@H]2C[C@H](O)[C@@H](CO)O2)cc1C(F)(F)F | -0.928
CC/C(=C(/CC)c1ccc(O)cc1)c1ccc(O)cc1 | -0.188

What value of measured Z-AUC is listed for C[C@]12CCC(=O)C=C1[C@@H]1C[C@@H]1[C@H]1[C@@H]3[C@@H]4C[C@@H]4[C@@]4(CCC(=O)O4)[C@@]3(C)CC[C@@H]12 ?
0.636

What value of measured Z-AUC is listed for CC(C)n1nc(-c2cc3cc(O)ccc3[nH]2)c2c(N)ncnc21 ?
-1.29
